# measured on: Sushi domains (SD1/2) protein of the GABAB1a (GB1a) subunit, recombinant
# Sequence (Q9Z0U4 29-158): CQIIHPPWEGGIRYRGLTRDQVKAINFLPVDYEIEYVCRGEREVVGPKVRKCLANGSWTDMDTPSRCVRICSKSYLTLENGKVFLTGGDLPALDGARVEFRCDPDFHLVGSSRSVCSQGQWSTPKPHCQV
# measurement notes: FP competition
Non-standard residues stand in square brackets, D forms with d. Sar = CNCC(=O)O
measurement kind: Ki (nM)
// note: answer is a bare numeric in nM

Solved entries (count: 2):
Ac-EDDSDVWW[Sar]GADTD-NH2 (SMILES CC(=O)N[C@@H](CCC(=O)O)C(=O)N[C@@H](CC(=O)O)C(=O)N[C@@H](CC(=O)O)C(=O)N[C@@H](CO)C(=O)N[C@@H](CC(=O)O)C(=O)N[C@H](C(=O)N[C@@H](Cc1c[nH]c2ccccc12)C(=O)N[C@@H](Cc1c[nH]c2ccccc12)C(=O)N(C)CC(=O)NCC(=O)N[C@@H](C)C(=O)N[C@@H](CC(=O)O)C(=O)N[C@H](C(=O)N[C@@H](CC(=O)O)C(N)=O)[C@@H](C)O)C(C)C) [EDDSDVWW(N-Me-G)GADTD] : 18900
Ac-[dE]TEFIAWGPTGDED-NH2 (SMILES CC[C@H](C)[C@H](NC(=O)[C@H](Cc1ccccc1)NC(=O)[C@H](CCC(=O)O)NC(=O)[C@@H](NC(=O)[C@@H](CCC(=O)O)NC(C)=O)[C@@H](C)O)C(=O)N[C@@H](C)C(=O)N[C@@H](Cc1c[nH]c2ccccc12)C(=O)NCC(=O)N1CCC[C@H]1C(=O)N[C@H](C(=O)NCC(=O)N[C@@H](CC(=O)O)C(=O)N[C@@H](CCC(=O)O)C(=O)N[C@@H](CC(=O)O)C(N)=O)[C@@H](C)O) [e…] : 46

Recorded Ki of Ac-EDDSDVWWGGAATD-NH2 […] , please. 653
